Cited source for all entries: the antibiotic and cytotoxicity screens of Wong et al. (2023)

- Test system: HSkMC
- Assay: cytotoxicity call (relative viability < 0.9)
- Reported Conditions: 10 µM
The campaign covered roughly 39,000 compounds. About 1,500 (3.8%) were called active. Shown is part of a subset that was picked to be rich in actives.
The categories you may choose from are t for active, f for inactive

// below: answered molecules
>  <Smiles Record>
CC(C)NC(=O)Nc1ccc2c(c1)C(=O)N([C@H](C)CO)C[C@H](C)[C@@H](CN(C)S(C)(=O)=O)OCCCC[C@@H](C)O2

>  <Label Class>
f

$$$$
>  <Smiles Record>
CNC[C@@H]1Oc2ccc(NS(=O)(=O)c3cn(C)cn3)cc2C(=O)N([C@H](C)CO)C[C@H]1C

>  <Label Class>
f

$$$$
>  <Smiles Record>
CC1(C)CC(=O)c2c(C(F)(F)F)nn(-c3ccc(C(N)=O)c(N[C@H]4CC[C@H](OC(=O)CN)CC4)c3)c2C1

>  <Label Class>
t

$$$$
>  <Smiles Record>
CNC(=O)c1cccc(S(N)(=O)=O)c1

>  <Label Class>
f

$$$$
>  <Smiles Record>
CCC(=O)N(C)C[C@H]1Oc2ncc(C#C[C@@H](C)O)cc2C(=O)N([C@H](C)CO)C[C@@H]1C

>  <Label Class>
f

$$$$

Hi, do you know how C[C@@H]1CN([C@H](C)CO)C(=O)c2cc(NS(=O)(=O)c3ccccc3)ccc2O[C@H]1CN(C)S(C)(=O)=O came out in this test? f

----------
- System: HSkMC (human skeletal muscle cells)
- Assay: cytotoxicity call (relative viability < 0.9)
- Reported Conditions: 10 µM
The campaign covered roughly 39,000 compounds. About 1,500 (3.8%) were called active. The sample as a whole holds a higher share of actives than the screen did.
Your answer must be one of the following: 1 = active, 0 = inactive

>  <Smiles Record>
CN(C)S(=O)(=O)Nc1cccc(N)c1

>  <Label Class>
0

$$$$
>  <Smiles Record>
COC[C@@H]1CN(C(=O)[C@H]2CCCN2C)N1

>  <Label Class>
0

$$$$
>  <Smiles Record>
CC(C)NC(=O)Nc1cccc2c1O[C@H](CN(C)S(=O)(=O)c1ccccc1)[C@H](C)CN([C@H](C)CO)C2=O

>  <Label Class>
0

$$$$
>  <Smiles Record>
C[C@@H]1CNC[C@H](C)N1

>  <Label Class>
0

$$$$
>  <Smiles Record>
COc1ccc2cc(S(=O)(=O)N[C@H](CC(=O)N[C@H](Cc3ccc(CN4[C@H](C)CCC[C@@H]4C)cc3)C(=O)N(C)C(C)C)c3ccc4c(c3)OCO4)ccc2c1

>  <Label Class>
0

$$$$
>  <Smiles Record>
C[C@@H]1CCCCO[C@H](CN(C)C(=O)Nc2ccc3c(c2)OCO3)[C@@H](C)CN([C@@H](C)CO)C(=O)c2cc(NS(=O)(=O)c3cccs3)ccc2O1

>  <Label Class>
0

$$$$
>  <Smiles Record>
C[C@@H]1CCCCO[C@@H](CN(C)S(=O)(=O)c2cccs2)[C@@H](C)CN([C@H](C)CO)C(=O)c2cc(NC(=O)Nc3ccc4c(c3)OCO4)ccc2O1

>  <Label Class>
0

$$$$
>  <Smiles Record>
C[C@H]1CN([C@@H](C)CO)C(=O)Cc2cc(NC(=O)CCN3CCOCC3)ccc2O[C@@H]1CN(C)Cc1ccc(C(=O)Nc2ccccc2N)cc1

>  <Label Class>
0

$$$$

Test call, this molecule: COc1ccc(S(=O)(=O)Nc2ccc3c(c2)C(=O)N([C@@H](C)CO)C[C@@H](C)[C@@H](CN(C)Cc2ccccc2)OCCCC[C@H](C)O3)cc1 0

GET /call?item= CCNC(=O)C[C@@H]1C=C[C@@H](NC(=O)C2CC2)[C@@H](CO)O1 returns the recorded outcome of this test. 0

State the result this test recorded for Nc1ccc(/C=C/C(=O)NCc2cc3cc(-c4ccc(C(=O)N5CCC(F)(F)CC5)cc4)cc(-c4ccc(F)cc4)c3o2)cn1 . 1

Any idea what this test logged for Cc1ccc(S(=O)(=O)Nc2ccc3c(c2)CC(=O)N([C@H](C)CO)C[C@H](C)[C@H](CN(C)CC2CC2)O3)cc1 ? 0

Which outcome was entered for the molecule C[C@@H]1CN([C@H](C)CO)C(=O)Cc2cc(NC(=O)Cn3cnnn3)ccc2O[C@@H]1CN(C)C(=O)Nc1ccc(C(F)(F)F)cc1 in this test? 0
